Target: T1, human FGFR3b expressed with a C-terminal myc-myc-hexahistidine tag (hFGFR3b.mmH) (human)
T1 construct: also called REGN3152; monomeric human FGFR3b
T1 chain: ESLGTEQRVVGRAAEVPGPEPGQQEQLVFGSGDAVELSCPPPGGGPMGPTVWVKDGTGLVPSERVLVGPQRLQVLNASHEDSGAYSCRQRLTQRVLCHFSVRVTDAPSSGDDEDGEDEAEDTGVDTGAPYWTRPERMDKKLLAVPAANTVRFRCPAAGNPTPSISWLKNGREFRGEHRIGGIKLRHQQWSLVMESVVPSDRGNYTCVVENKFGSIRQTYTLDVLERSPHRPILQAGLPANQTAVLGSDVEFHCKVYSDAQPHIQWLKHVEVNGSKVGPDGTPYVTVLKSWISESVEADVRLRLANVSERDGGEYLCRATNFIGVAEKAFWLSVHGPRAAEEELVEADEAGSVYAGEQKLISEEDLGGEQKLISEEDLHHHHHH
Experiment: SPR Biacore, mAb captured on anti-hFc, 25C
Reported metric: kon (M⁻¹ s⁻¹)
Numbers only, in M⁻¹ s⁻¹.

H4H30045P (antibody, human IgG4 S228P, kappa, V domains shown, HCVR 179, LCVR 187) VH: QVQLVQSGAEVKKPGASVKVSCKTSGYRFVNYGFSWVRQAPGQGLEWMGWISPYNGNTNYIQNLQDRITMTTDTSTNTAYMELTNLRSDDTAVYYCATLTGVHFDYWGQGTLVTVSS VL: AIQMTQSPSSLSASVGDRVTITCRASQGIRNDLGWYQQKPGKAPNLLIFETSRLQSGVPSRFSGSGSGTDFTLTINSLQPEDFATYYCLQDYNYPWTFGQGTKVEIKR	385000

Record kon for all entries; do not skip any.
1. H4H30071P (antibody, human IgG4 S228P, kappa, V domains shown, HCVR 42, LCVR 50) VH: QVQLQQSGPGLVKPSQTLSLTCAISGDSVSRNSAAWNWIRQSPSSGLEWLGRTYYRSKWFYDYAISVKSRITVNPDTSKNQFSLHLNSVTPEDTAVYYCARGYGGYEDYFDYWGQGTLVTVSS VL: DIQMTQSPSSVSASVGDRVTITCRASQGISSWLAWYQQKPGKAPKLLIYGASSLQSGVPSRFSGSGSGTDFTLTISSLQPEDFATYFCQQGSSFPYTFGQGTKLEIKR
2. H4H30076P (antibody, human IgG4 S228P, kappa, V domains shown) VH: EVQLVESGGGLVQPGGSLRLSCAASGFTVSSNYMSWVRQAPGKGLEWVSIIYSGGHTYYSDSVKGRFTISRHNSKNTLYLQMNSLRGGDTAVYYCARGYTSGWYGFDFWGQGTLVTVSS VL: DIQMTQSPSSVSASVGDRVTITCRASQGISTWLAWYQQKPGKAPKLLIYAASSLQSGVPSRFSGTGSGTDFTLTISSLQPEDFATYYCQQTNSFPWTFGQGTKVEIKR
3. H4H30061P (antibody, human IgG4 S228P, kappa, V domains shown) VH: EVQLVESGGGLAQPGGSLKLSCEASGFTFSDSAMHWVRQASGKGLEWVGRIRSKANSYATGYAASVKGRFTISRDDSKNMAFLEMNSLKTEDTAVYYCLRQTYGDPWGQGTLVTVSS VL: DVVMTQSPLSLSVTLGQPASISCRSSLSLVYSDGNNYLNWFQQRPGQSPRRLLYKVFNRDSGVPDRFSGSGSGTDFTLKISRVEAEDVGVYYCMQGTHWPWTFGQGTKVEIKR
4. H4H30063P (antibody, human IgG4 S228P, kappa, V domains shown, HCVR 2, LCVR 10; also called REGN15684) VH: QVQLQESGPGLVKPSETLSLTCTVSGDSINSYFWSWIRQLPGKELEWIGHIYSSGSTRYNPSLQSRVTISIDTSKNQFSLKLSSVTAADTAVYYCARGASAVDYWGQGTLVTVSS VL: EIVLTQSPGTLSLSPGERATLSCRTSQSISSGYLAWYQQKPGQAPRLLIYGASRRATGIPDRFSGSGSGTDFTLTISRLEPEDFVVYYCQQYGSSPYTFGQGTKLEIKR

1. 216000
2. 236000
3. 173000
4. 172000
